Reference source for all entries: BigSolDB 2.1

Condition: in NMP, 303.2 K
Measured Endpoint: solubility (mole fraction)

substance_smiles=Cc1ccc(-c2cc(C(F)(F)F)nn2-c2ccc(S(N)(=O)=O)cc2)cc1 val=0.0776

====

Condition: in NMP, 308.2 K
Measured Endpoint: solubility (mole fraction)

substance_smiles=Cc1ccc(-c2cc(C(F)(F)F)nn2-c2ccc(S(N)(=O)=O)cc2)cc1 val=0.0799

====

Condition: in NMP, 313.2 K
Measured Endpoint: solubility (mole fraction)

substance_smiles=Cc1ccc(-c2cc(C(F)(F)F)nn2-c2ccc(S(N)(=O)=O)cc2)cc1 measured_endpoint="solubility (mole fraction)" val=0.0917

====

Condition: in isopropanol, 303.2 K
Measured Endpoint: solubility (mole fraction)

substance_smiles=Cc1ccc(-c2cc(C(F)(F)F)nn2-c2ccc(S(N)(=O)=O)cc2)cc1 measured_endpoint="solubility (mole fraction)" val=0.0156
